Source of measurements: paper PMC9260974

Assay: Single-dose two-period crossover bioequivalence study, fed (high-fat breakfast): plasma pharmacokinetics of lisinopril and amlodipine (LC-MS/MS, NCA)
Conditions: human, plasma, po, Plasma concentration of lisinopril, Max, maximum among subjects, nominal time 0 h, reference (R) tablets

{"columns": ["Molecule", "concentration at 0 h"],
 "data": [
  ["NCCCC[C@H](N[C@@H](CCc1ccccc1)C(=O)O)C(=O)N1CCC[C@H]1C(=O)O [lisinopril]", "0.532 ng/mL"]
]}

----------
Experiment: Single-dose two-period crossover bioequivalence study, fed (high-fat breakfast): plasma pharmacokinetics of lisinopril and amlodipine (LC-MS/MS, NCA)
Conditions: human, plasma, po, Plasma concentration of lisinopril, Min, minimum among subjects, nominal time 11 h, reference (R) tablets

{"columns": ["Compound Smiles", "concentration at 11 h"],
 "data": [
  ["NCCCC[C@H](N[C@@H](CCc1ccccc1)C(=O)O)C(=O)N1CCC[C@H]1C(=O)O", "3.97 ng/mL"]
]}

----------
Test: Single-dose two-period crossover bioequivalence study, fasting: plasma pharmacokinetics of lisinopril and amlodipine (LC-MS/MS, NCA);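 further: single tablet dose 10 mg/5 mg fixed combination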
Details: human, plasma, po, Plasma concentration of amlodipine, Mean, reference (R) tablets, nominal time 36 h, mean of subjects

{"columns": ["Compound", "concentration at 36 h"],
 "data": [
  ["CCOC(=O)C1=C(COCCN)NC(C)=C(C(=O)OC)C1c1ccccc1Cl (stereo not shown)", "1.13 ng/mL"]
]}

----------
Test: Single-dose two-period crossover bioequivalence study, fasting: plasma pharmacokinetics of lisinopril and amlodipine (LC-MS/MS, NCA);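 further: single tablet dose 10 mg/5 mg fixed combination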
Details: human, plasma, po, Plasma concentration of amlodipine, Min, reference (R) tablets, nominal time 8 h, minimum over subjects

{"columns": ["Compound", "Unit String", "concentration at 8 h"],
 "data": [
  ["CCOC(=O)C1=C(COCCN)NC(C)=C(C(=O)OC)C1c1ccccc1Cl (stereo not shown) [amlodipine]", "ng/mL", 0.988]
]}

----------
Assay: Single-dose two-period crossover bioequivalence study, fasting: plasma pharmacokinetics of lisinopril and amlodipine (LC-MS/MS, NCA);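 further: single tablet dose 10 mg/5 mg fixed combination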
Conditions: human, plasma, po, Plasma concentration of amlodipine, Min, reference (R) tablets, nominal time 1 h, minimum over subjects

{"columns": ["Molecule", "concentration at 1 h / ng/mL"],
 "data": [
  ["CCOC(=O)C1=C(COCCN)NC(C)=C(C(=O)OC)C1c1ccccc1Cl (stereo not shown)", 0.26]
]}

----------
Assay: Single-dose two-period crossover bioequivalence study, fed (high-fat breakfast): plasma pharmacokinetics of lisinopril and amlodipine (LC-MS/MS, NCA)
Conditions: human, plasma, po, Plasma concentration of lisinopril, Max, maximum among subjects, nominal time 144 h, reference (R) tablets
Measured Attribute: concentration at 144 h (ng/mL)

{"columns": ["Compound", "Measured Attribute", "Unit String", "Value Observed"],
 "data": [
  ["NCCCC[C@H](N[C@@H](CCc1ccccc1)C(=O)O)C(=O)N1CCC[C@H]1C(=O)O [lisinopril]", "concentration at 144 h", "ng/mL", 2.07]
]}

----------
Assay: Single-dose two-period crossover bioequivalence study, fasting: plasma pharmacokinetics of lisinopril and amlodipine (LC-MS/MS, NCA);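 further: single tablet dose 10 mg/5 mg fixed combination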
Conditions: human, plasma, po, Plasma concentration of amlodipine, Max, reference (R) tablets, nominal time 10 h, maximum over subjects
Measured Attribute: concentration at 10 h (ng/mL)

{"columns": ["Molecule", "Unit String", "Value Observed"],
 "data": [
  ["CCOC(=O)C1=C(COCCN)NC(C)=C(C(=O)OC)C1c1ccccc1Cl (stereo not shown) [amlodipine]", "ng/mL", 2.86]
]}
